// data source = PubChem BioAssay (NCI)

Test system: RPMI-8226 leukemia
assay_protocol: NCI tumour cell line growth inhibition, 48 h; in the data active = GI50 below about 0.43 µM; inactive = the rest
Please state which outcome applies, choosing from TRUE = active, FALSE = inactive

Previously resolved entries follow.
[
  {
    "molecule": "COc1ccccc1N1CCN(CCCOc2ccc(C(=O)/C=C3/C(=O)Nc4ccccc43)cc2)CC1",
    "target_desc": "RPMI-8226 leukemia",
    "qualitative_label": "FALSE"
  },
  {
    "molecule": "CCOC(=O)/C=C(/C(=O)OCC)n1ccc(=O)n(CC(=O)OCC)c1=O",
    "target_desc": "RPMI-8226 leukemia",
    "qualitative_label": "FALSE"
  },
  {
    "molecule": "CCCC(=O)Nc1c(I)cc(I)c(CC(CC)C(=O)O)c1I (stereo not given)",
    "target_desc": "RPMI-8226 leukemia",
    "qualitative_label": "FALSE"
  },
  {
    "molecule": "CCCc1n(Cc2ccc3ccccc3n2)cc[n+]1Cc1ccc2ccccc2c1",
    "target_desc": "RPMI-8226 leukemia",
    "qualitative_label": "TRUE"
  }
]

Here is the next item to consider.
Challenge: Could you please tell me the result logged for COC(=O)[C@H](Cc1cn(C)cn1)NC(=O)[C@@H](NC(=O)Nc1cc(C(F)(F)F)cc(C(F)(F)F)c1)C(C)(C)C in this assay?
Response given: FALSE

###

As shown below, each of these molecules has a reported GI50 value.
Test system: K-562 leukemia
assay_protocol: NCI tumour cell line growth inhibition, 48 h

Use these answered entries as a reference point.
[
  {
    "molecule": "COc1ccc(-c2cc(-c3ccc(Cl)cc3)nc(SCCCCCCC(=O)NO)n2)cc1",
    "GI50": "1720 nM"
  },
  {
    "molecule": "CC(C)c1cc(C(=O)[O-])c(O)c(C(C)C)c1.CC(C)c1cc(C(=O)[O-])c(O)c(C(C)C)c1.CC(C)c1cc(C(=O)[O-])c(O)c(C(C)C)c1.CC(C)c1cc(C(=O)[O-])c(O)c(C(C)C)c1.CC(C)c1cc(C(=O)[O-])c(O)c(C(C)C)c1.CC(C)c1cc(C(=O)[O-])c(O)c(C(C)C)c1.[Cu+2].[Mn+2].[Mn+2]",
    "GI50": "12800 nM"
  },
  {
    "molecule": "CCC1(N)C(=O)OCc2c1cc1n(c2=O)Cc2cc3ccccc3nc2-1 (centres undefined)",
    "GI50": "5360 nM"
  }
]

Challenge: Look up GI50 with K-562 leukemia for this molecule: CCCCCCCCCC[N+](C)(C)C
Response given: 1820 nM

Challenge: Thanks! And NC(Cc1c[nH]c2cc(F)ccc12)C(=O)O (centres undefined) ?
Response given: 912000 nM

Challenge: Query Cc1ccc2c(c1)-c1oc(=O)c(-c3cc4ccccc4oc3=O)cc1C(O)O2 (centres undefined) next
Response given: 26200 nM

###

System: KM12 colon
assay_protocol: NCI tumour cell line growth inhibition, 48 h
// reported TGI per item

Example entries and their recorded answers appear below.
[
  {
    "compound": "COc1ccc(C(=O)N(Cc2cccnc2)C(=S)N(Cc2cccnc2)C(=O)c2ccc(OC)cc2)cc1",
    "target_desc": "KM12 colon",
    "TGI": "> 100 µM"
  },
  {
    "compound": "COc1cc2c3c(c1OC)C(=O)C(=O)C1=C3N(CCC1)CC2",
    "target_desc": "KM12 colon",
    "TGI": "44.5 µM"
  },
  {
    "compound": "COc1cc(=O)oc(/C=C/C=C/C=C/C(C)=C\\C2(C)OC(C)C(C)(O)C2O)c1C (stereo not given)",
    "target_desc": "KM12 colon",
    "TGI": "> 100 µM"
  },
  {
    "compound": "O=C1CSC(c2cccc(Oc3ccccc3)c2)N1c1cccc(Cl)c1Cl (stereo not given)",
    "target_desc": "KM12 colon",
    "TGI": "> 100 µM"
  }
]

Now for a further compound.
Challenge: Given the entry CO/N=C(\C(=O)[N-][n+]1cnn(CC(=O)O)c1)c1csc(N)n1 , what TGI was observed with KM12 colon?
Response given: > 10 µM

###

Tested on: SK-OV-3 ovarian
assay_protocol: NCI tumour cell line growth inhibition, 48 h
property_label: GI50

[
  {
    "compound": "Cc1ccccc1C[P+](c1ccccc1)(c1ccccc1)c1ccccc1",
    "target_desc": "SK-OV-3 ovarian",
    "GI50": "1.64 µM"
  },
  {
    "compound": "CCCCCC(=C/c1ccccc1)/C=N/N=C(N)N",
    "target_desc": "SK-OV-3 ovarian",
    "GI50": "2.95 µM"
  },
  {
    "compound": "Cc1ccc(-n2c3c(c4c(CN)c(O)ccc42)CCc2ccccc2C3=O)cc1",
    "target_desc": "SK-OV-3 ovarian",
    "GI50": "18.1 µM"
  },
  {
    "compound": "COc1ccc(-c2cc(-c3ccc(Cl)cc3)nc(SCCCCCCC(=O)NO)n2)cc1",
    "target_desc": "SK-OV-3 ovarian",
    "GI50": "1.62 µM"
  },
  {
    "compound": "NC(Cc1c[nH]c2cc(F)ccc12)C(=O)O (stereo unspecified)",
    "target_desc": "SK-OV-3 ovarian",
    "GI50": "877 µM"
  }
]

# next compound below
Challenge: # input compound: COc1cccc(NC(=O)c2ccc(NC3=C(Cl)C(=O)N(Cc4ccccc4)C3=O)cc2)c1 ; wanted: its GI50
Response given: 30.5 µM

###

System: HL-60(TB) leukemia
assay_protocol: NCI tumour cell line growth inhibition, 48 h
property_label: GI50

Below: 5 molecules and their reported GI50.
[
  {
    "molecule": "O=C1CCC(N2C(=O)c3cccc(NCCOCCOCCNC(=O)c4cc5c(o4)C(=O)c4ccccc4C5=O)c3C2=O)C(=O)N1 (stereo unspecified)",
    "property_label": "GI50",
    "assay_result": "2100 nM"
  },
  {
    "molecule": "CC(C)c1cc(C(=O)[O-])c(O)c(C(C)C)c1.CC(C)c1cc(C(=O)[O-])c(O)c(C(C)C)c1.CC(C)c1cc(C(=O)[O-])c(O)c(C(C)C)c1.CC(C)c1cc(C(=O)[O-])c(O)c(C(C)C)c1.CC(C)c1cc(C(=O)[O-])c(O)c(C(C)C)c1.CC(C)c1cc(C(=O)[O-])c(O)c(C(C)C)c1.[Cu+2].[Mn+2].[Mn+2]",
    "property_label": "GI50",
    "assay_result": "17700 nM"
  },
  {
    "molecule": "N.N.NCCCCCN.O=C([O-])CC(=O)[O-].O=C([O-])CC(=O)[O-].[Pt+4].[Pt+4]",
    "property_label": "GI50",
    "assay_result": "39600 nM"
  },
  {
    "molecule": "CN1CCN(Cc2ccc(NC(=O)c3cccc(C#Cc4c(N)ncc5ccc(F)cc45)c3)cc2C(F)(F)F)CC1",
    "property_label": "GI50",
    "assay_result": "626 nM"
  },
  {
    "molecule": "Clc1ccc(COC(Cn2ccnc2)c2ccc(Cl)cc2Cl)c(Cl)c1 (stereo unspecified)",
    "property_label": "GI50",
    "assay_result": "2340 nM"
  }
]

Query molecule follows.
Challenge: Give its GI50 value. Item: COc1c(N2CCN(CN3C(=O)C(=O)c4ccccc43)C(C)C2)c(F)cc2c(=O)c(C(=O)O)cn(C3CC3)c12 (stereo unspecified)
Response given: > 100000 nM

###

System: SW-620 colon
assay_protocol: NCI tumour cell line growth inhibition, 48 h
property_label: TGI

Known TGI results, listed for orientation:
[
  {
    "compound": "CCOC(=O)/C=C/c1c[nH]c(=O)[nH]c1=O",
    "property_label": "TGI",
    "assay_result": "> 75 µM"
  },
  {
    "compound": "COC(=O)C1=C(O)c2cc3c(cc2[C@H](c2cc(OC)c(OC)c(OC)c2)C1)OCO3",
    "property_label": "TGI",
    "assay_result": "> 100 µM"
  },
  {
    "compound": "COC1C(O)CC(OC2CC(OC3CC(O[C@@H]4C(=O)c5c(cc6cc(OC7CC(OC8CC(O)C(O)C(C)O8)C(O)C(C)O7)c(C)c(O)c6c5O)CC4[C@H](OC)[C@@H](O)C(C)=O)OC(C)C3O)OC(C)C2O)OC1C (stereo not given in full)",
    "property_label": "TGI",
    "assay_result": "> 33.3 µM"
  },
  {
    "compound": "COc1ccc(NC(=S)Nc2c(C)n(C)n(-c3ccccc3)c2=O)cc1",
    "property_label": "TGI",
    "assay_result": "> 100 µM"
  },
  {
    "compound": "C#CCOC(=O)[C@@H](C)c1ccc2cc(OC)ccc2c1",
    "property_label": "TGI",
    "assay_result": "> 100 µM"
  }
]

Challenge: Find the recorded TGI belonging to O=C1c2cc([N+](=O)[O-])sc2C(=O)c2cc([N+](=O)[O-])sc21 and report it.
Response given: 3.37 µM

Challenge: # iterate: CC(C)(C)C1CCC(=O)C(C(O)CC2CC(=O)N(c3ccccc3)C(=O)C2)C1 (stereo not given)
Response given: > 100 µM
